B1: TPR t1 (parent)
chain: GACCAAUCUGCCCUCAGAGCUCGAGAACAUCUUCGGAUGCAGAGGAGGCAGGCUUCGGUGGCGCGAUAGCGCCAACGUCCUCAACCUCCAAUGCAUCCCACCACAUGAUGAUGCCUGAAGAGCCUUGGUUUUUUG

# Variants of: B1
# MEASUREMENT PROTOCOL: polymerase ribozyme fitness, log enrichment relative to wild type (log ratio); higher = more active; in vitro selection for triplet polymerase activity
// map polymerase ribozyme fitness (log ratio) to label using low class = under -4, middle class = from -4 up to -1, high class = -1 and over

Prompt line: Tag the class for `GGCCAAUCUGCCCUCAGAGCUCGAGAACAUCUUCGGAUGCAGAGGAGGCAGGCUUCGGUGGCGCGAUAGCGCCUACGUCCUCAACCUCGAAUGCAUCCCACCACAUGAUGAAGCCUGAAGAGCCUUGGUUUUUUG`
Response line: middle class

Prompt line: Repeat with `GACCAAUCUGCCCUCAGAGCUCGAGAACAUCUUCGGAUGCAGAGGAGGCAGGCUUCGGUGGGGCGAUAGCGCCAACGUCCUCAACCUCCAAUGCAUCCCACAACAUGAUGAUGCAUGAAGAGCCUUGGUUUUUUG`
Response line: middle class

Prompt line: Repeat with `GACCAAUCUGCCCUCAGAGCUCGAGAACAUCUUCGGAUGCAUAGGAGGCAGCCUUCGGUGGCGCGAUAGCGCCAACGUCCUCAACCUCCAAUGCAUGCCACCACAUGAUGAUGCUUGAAGAGCCUUGGUUUUUUG`
Response line: low class

Prompt line: Repeat with `GACCAAUCUGCCGUCAGAGCUCGAGAACAUCUUCGGAUUCAGAGGAGGCAGGCUUCGGUGGCGCGAUAGCGCCAACGUCCUCAACCUCCAAUGCAUCCCACCACAUGAUGAUGCUUGAAGAGCCUUGGUUUUUUG`
Response line: middle class

Prompt line: Repeat with `GACCAAUCUGCCCUCAGAGCUCGAGAACAUCUUCGGAUGCAGAGAAGGCAGGCUUCGGUGGCGCGAUAGCGCAAACGUCCUCAACCUCCAAUGCAUCCCACCACAUGAUGAUGCCUGAAGAGCCUUGGUUUUGUG`
Response line: high class

Prompt line: Repeat with `GACCAAUCUGCCCUCAGAGCUCGAGAACAUCUUCGGAUGCAGAGGAGGAAGGCUUCGGUGGCGCGAUAGCGCCAACGUCCUCAACCUCCAAUGCAUCCCACCACAUGAUGAUGCCUGAAGAACCUUGGUUUUUUG`
Response line: high class

Prompt line: Repeat with `GACCAAUCUGCACUCAGAGCUCGAGAACAUCUUCGGAUGCAGAGGAGGCAGGCUUCGGUGGCGCGAUAGCGCCAACGUCCUCAACCUCCAAUGCAUCCCACCACAUGAUGAUGCCUGAAGAGCCUUGGUUUUGUG`
Response line: middle class

Prompt line: Repeat with `GACCAAUCUGCCCUCUGAGCUCGAGAACAUCUUCGGAUGCAGAGGAGGCAGGCUUCGGUGGCGCGAUAGCGCUAACGUCCUCAACCUCCAAUCCAACCCACCACAUGAUGAUGCCUGAAGAGCCUUGGUUUUUUG`
Response line: low class

Prompt line: Repeat with `GACCAAUCUGCCCUCAGAGCUCGAGAACAUCUUCGGAUGCAGAGGAGGCAGGCUUCGGUGGCGCGAUAGGGCCAACGUCCUCAACCUCCAAUGCAUCCCACCACAUGAUGUUGCCUGAAGAGCCUUGGUUUUUUG`
Response line: low class

Prompt line: Repeat with `GACCAAUCUGCCCUCAGAGCUCGAGAACAUCUUCGGAUGCAGAUGAGGCAGGCUUCGGUGGCGCGAUAGCGCCAACGUCCUCAACCUCCAAUGCAUCUCACCACAUGAUGAUGCCUGAAGAGCCGUUGUUUUUUG`
Response line: middle class

Prompt line: Repeat with `GACCAAUCUGCCCUCAGAGCUCGAGAACAUCUUCGGAUGCAGAGGGGGUAGGCUUCGGUGGCGCGAUAGCGCCAACGUCCUCAACCUCCAAUGCAUCCCACCACAUGAUGAUGCCUGAAGAGCCUUGGUUUUUUG`
Response line: high class

Prompt line: Repeat with `GACCAAUCUGCCCUCAGAGCUGGAGAACAUCUUCGGAUGCUGAGGAGGCAGGCUUCGGUGGCGCGAUAGCGCCAACGUCCUCAACCUCCAAUUCAUCCCACCACAUGAUGAUGCCUGAAGAGCCUUGGUUUUUUG`
Response line: low class

Prompt line: Repeat with `GACCAAUUUGCCCUCAGAGCUCGAGAACAUCUUCGGAUGCAGAGGAGGCAGGCUUCGGUGGCGCGAUAGCGCCAACGUCCUCAACCUUCAAUGCAUCCCACCACAUGAUGAUGCCUGAAGAGCCUUGGUUUUUUG`
Response line: high class

Prompt line: Repeat with `GACCAAUGUGCCCUCAGAGCUCGAGAACAUCUUCGGAUGCAGAAGAGGCAGGCUUCGGUGGCGCGAUAGCGCCAACGUCCUCAACCUCCAAUGCAUCCCAUCACAUGAUGAUGCCUGAAGAGCCUUGGUUUUUUG`
Response line: high class

Prompt line: Repeat with `GACCAAUCUGCCCUCAGAGGUCGAGAACAUCUUCGGAUGCAGAGGAGGAAGGCUUCGGUGGCGCGAUAGCGCCAACGUCCUCAACCUCCAAUGCAGCCCACCACAUGAUGAGGCGUGAAGAGACUUGGUUUUUUG`
Response line: low class

Prompt line: Repeat with `GACCAAUCUGCCCUCAGAGCUCGAGAACAUCUUCGGAUGUAGAGUAGGCAGGCUUCGGUGGCACGAUAGCGCCAACGUCCUCAACCUCCAAUGCAUCCCACCACAUGAUGAUGCCUGAAGAGCCUUGGUUUUUUG`
Response line: middle class

Prompt line: Repeat with `GACCAAUCUGCCCUUAGAGCUCGAGAACAUCUUCGGAUGCAGAGGAGGCAGGCUUCGGUGGCGCGAUAGCGCCAACGUCCUCGACCUCCAAUGCAUCCCACCACAUGAUGAUGCCUGAAGAGCCUUGGUUUUUUG`
Response line: middle class

Prompt line: Repeat with `GACCAAUCUGCCCUCACAGCUCGAGAACAUCUUCGGAUGCAGAGGAGGCAGGCUUCGGUGGCGCGAUAGCGCCAACGACCUCAACCUCCAAUGCAUCCCACCACAUGAUGUUGCCUGAAGAGCCUUGGUUUUUUG`
Response line: low class

Prompt line: Repeat with `GACCAAUCUGCCCUCAGAGCUCGAGAACAUCUUCGGAUGCAGAGGAGGCCGGCUUCGGUGGCGCGAUAGCGCCAACGUCCUCAACCGCCAAUGCAUCCCACCACAUGAUGAUGCCUGAACAGCCUUGGUUAUUUG`
Response line: high class

Prompt line: Repeat with `GACCAAUCUGCCCUCAGAGCGCGAGAACAUCUUCGGAUGCAGAGGAGGCAGGCUUCGGUGGCGCGAUAGCGCCAACGUCCUCAACCACCAAUGCAUCCCACCACAUGAUGAUGCCUGAAGAGCCUUGGUUUUGUU`
Response line: middle class

Prompt line: Repeat with `GACCCAUCUGCUCUCAGAGCUCGAGAACAUCUUCGGAUGCAGAGGAGGCAGGCUUCGGUGGCGCGAUAGCGCCAACGUCCUCAACCUCCAAUGCAUCCCACCACAUGAUGAUGCCUGAAGAGCCUUGGUUUUUUG`
Response line: high class

Prompt line: Repeat with `GACCAAUCUGCCCUCAGAGCUCGAGAACAUCUUCGGAUGCAGAGGAGGCAGGCUUCGGUGGAGCGAUAGCGCCAACGUCCUCAACCUCCAAUGCAUCCCACCACAUGAUAAUGCCUGAAGAGCCUUGGUUUUUUG`
Response line: middle class

Prompt line: Repeat with `GACCAAUCUGCCCUCAGAGCUCGAGAACAUCUUCGGAUGCAGAGGGUGCAGGCUUCGGUGGCGCGAUAGCGCCAACGUCCUCAACCUCCAAUGCAUCCCACCACAUGAUGAUGCCUGAGGAGCCUUGGUUUUUUG`
Response line: high class

Prompt line: Repeat with `GACCAAUCUGCCCUCAGAGCUCGAGAAAAUCUUCGGAUGCAGAGGAGGCAGGCUUCGGUGGCGCGAUAGCGCCAACGUCCUCAACCUCUAAUGCAUCCCACCACAUGAUGAAGCCUGAAGAGCCUUGGUUUUUUG`
Response line: middle class

Prompt line: Repeat with `GACCAAUCUGCCCUCAGAGCUCGAGAACAUCUUAGGAUGCAGAGGAGGCAGGCUUCGGUGGCGCGAUAGCGCCAACGUCCUCAUCCUCCAAUGCAUCCCACCACAUGAUGAUGCCUGAAGAGCCUUGGUUUUUUG`
Response line: middle class

Prompt line: Repeat with `GAUCAAUCUGACCUCAGAGCUCGAGAACAUCUUCGGAUGCAGAGGAGGCAGGCUUCGGUGGCGCGAUAGCGCCAACGACCUCAACCUCCAAUGCAUCCCACCACAUGAUGAUGCCUGAAGAGCCUUGGUUUUUUG`
Response line: middle class

Prompt line: Repeat with `GUCCAAUCUGCCCUCAGAGCUCGAGAACAUCUUCGGAUCCAGAGAAGGCAGGCUUCGGUGGCGCGAUAGCGCCAACGUCCUCAACCUCCAAUGCAUCCCACCACAUGAUGAUGCCUGAAGAGCCUUGGUUUAUUG`
Response line: middle class

Prompt line: Repeat with `GACCAAUCUGCGCUCAGAGCUCGAGAACAUCUUCGGAUGCUGAGGAGGCAGGCUUCGGUGGCGCGAUAGCGCCAACGUCCUCUACCUCCAAUGCAUCCCACCACAUGAUGAUCCCUGAAGAGCCUUGGUUUUUUG`
Response line: middle class

Prompt line: Repeat with `GACCAAUCUGCCCUCAGAGCUCGAGAACAUCUUCGGAUGCAGAAGAGGCAGGCUUCGGUGGCACGAUAGCGCCAACGUCAUCAACCUCCAAUGCAUCCCACCACAUGAUUAUGCGUGAAGAGCCUUGGUUUUUUG`
Response line: low class

Prompt line: Repeat with `GACCAAUCUGCCCUCAGAGCUCGAGAACAUCUUCGCAUGCAGAGGAGGCAGGCUUCGGUGGCGCGAUAGCGCCAACGGCCUCAACCUCCAAUGCAUCCCACCACAUGAUGAUGCCUGAAGAGCCUUGGUUUUUUG`
Response line: middle class

Attribution: the RNAGym collection of RNA variant scans (doi:10.1073/pnas.2313332121)
